- EXPERIMENTAL_TARGET: Serotonin 3 (5-HT3) receptor (Rattus norvegicus, UniProt P35563+Q9JJ16)
- Sequence (P35563 whole entry): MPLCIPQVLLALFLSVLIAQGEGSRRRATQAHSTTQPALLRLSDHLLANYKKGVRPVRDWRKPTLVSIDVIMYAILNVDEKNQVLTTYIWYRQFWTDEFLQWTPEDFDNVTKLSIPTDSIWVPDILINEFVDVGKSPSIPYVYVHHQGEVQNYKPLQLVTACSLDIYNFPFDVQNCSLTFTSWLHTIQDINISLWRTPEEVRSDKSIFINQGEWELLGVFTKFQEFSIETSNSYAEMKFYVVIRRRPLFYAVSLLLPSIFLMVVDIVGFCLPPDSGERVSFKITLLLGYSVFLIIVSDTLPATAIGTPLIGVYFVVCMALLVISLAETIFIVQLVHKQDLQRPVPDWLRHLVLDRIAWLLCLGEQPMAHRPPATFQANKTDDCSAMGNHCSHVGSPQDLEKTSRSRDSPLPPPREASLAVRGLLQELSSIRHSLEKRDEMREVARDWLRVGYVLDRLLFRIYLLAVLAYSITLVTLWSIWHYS
- Sequence (Q9JJ16 whole entry): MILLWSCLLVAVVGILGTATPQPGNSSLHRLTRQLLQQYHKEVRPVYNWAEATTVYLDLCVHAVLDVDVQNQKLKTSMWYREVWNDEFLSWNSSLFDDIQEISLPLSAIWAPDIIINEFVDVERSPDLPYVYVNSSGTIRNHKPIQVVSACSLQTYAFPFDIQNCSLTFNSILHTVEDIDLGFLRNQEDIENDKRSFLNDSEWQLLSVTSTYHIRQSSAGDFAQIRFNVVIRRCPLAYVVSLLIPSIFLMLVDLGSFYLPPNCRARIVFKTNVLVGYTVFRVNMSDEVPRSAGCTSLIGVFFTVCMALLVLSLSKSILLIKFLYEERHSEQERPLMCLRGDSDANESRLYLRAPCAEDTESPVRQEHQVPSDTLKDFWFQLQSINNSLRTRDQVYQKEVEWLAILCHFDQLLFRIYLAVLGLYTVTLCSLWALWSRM
- ASSAY_NAME: Binding affinity for 5-hydroxytryptamine 3 receptor from rat cortex using [3H]BRL-43694 as radioligand
Collected pKi values appear next to each entry.
Note on units: pKi is unitless, being -log10 of a concentration expressed in mol/L.

Per the records, this compound ( c1ccc2nc(N3CCNCC3)ccc2c1 ) has pKi equal to 8.92

Per the records, this compound ( CN(C)CCSc1nc2ccccc2c2c1CCOc1ccccc1-2 ) has pKi equal to 7.34

Per the records, this compound ( COc1cc2c(N3CCN(C)CC3)nc3ccccc3c2c2ccccc12 ) has pKi equal to 7.38

Continue with the next compound.
Per the records, this compound ( CCN1CCN(c2nc3ccccc3c3c2COc2ccccc2-3)CC1 ) has pKi equal to 7.27

Taken from ChEMBL document CHEMBL1128467.
